Test system: Pseudomonas aeruginosa ATCC 15442
Experiment: ≥ marks a high value that may be exact or a test limit, other limits are often not marked, values filed in µg/mL are converted to µM
Entries and their MIC values follow.

structure_string=CC[C@H](C)[C@H](N)C(=O)N[C@@H](Cc1ccc(O)cc1)C(=O)N[C@@H](Cc1ccc(O)cc1)C(=O)N1CCC[C@H]1C(=O)N1CCC[C@H]1C(=O)N[C@@H](CC(N)=O)C(=O)N[C@@H](Cc1cnc[nH]1)C(=O)N[C@@H](CC(N)=O)C(=O)N[C@@H](Cc1ccccc1)C(=O)N1CCC[C@H]1C(N)=O target_or_system="Pseudomonas aeruginosa ATCC 15442" property_name=MIC assay_result="≥ 203 µM"
structure_string=CC[C@H](C)[C@H](NC(=O)[C@H](C)NC(=O)CNC(=O)[C@H](CC(C)C)NC(=O)[C@@H](NC(=O)[C@H](CCCCN)NC(=O)[C@H](CCCCN)NC(=O)[C@@H](NC(=O)[C@@H](NC(=O)CNC(=O)[C@H](CC(C)C)NC(=O)[C@H](CC(C)C)NC(=O)[C@H](CCCCN)NC(=O)[C@@H](N)CC(C)C)[C@@H](C)CC)C(C)C)C(C)C)C(N)=O target_or_system="Pseudomonas aeruginosa ATCC 15442" property_name=MIC assay_result="≥ 34 µM"
structure_string=CC(C)C[C@H](NC(=O)[C@H](C)NC(=O)[C@H](Cc1cnc[nH]1)NC(=O)[C@H](Cc1cnc[nH]1)NC(=O)CNC(=O)[C@H](CC(C)C)NC(=O)[C@@H](N)Cc1cnc[nH]1)C(=O)N[C@@H](CC(=O)O)C(=O)N[C@@H](Cc1cnc[nH]1)C(=O)N[C@@H](CC(C)C)C(=O)N[C@@H](CC(C)C)C(=O)N[C@@H](CCCCN)C(=O)O target_or_system="Pseudomonas aeruginosa ATCC 15442" property_name=MIC assay_result="≥ 8990 µM"

--- query ---
Could you share what MIC was measured for `CC[C@H](C)[C@H](NC(=O)[C@H](C)NC(=O)[C@@H](N)C(C)C)C(=O)N[C@@H](C)C(=O)N[C@@H](CC(C)C)C(=O)N[C@@H](CCCCN)C(=O)N[C@@H](C)C(=O)N[C@@H](C)C(=O)N[C@@H](C)C(=O)N[C@@H](Cc1ccc(O)cc1)C(=O)N[C@@H](Cc1cnc[nH]1)C(=O)N[C@H](C(=O)N[C@@H](Cc1cnc[nH]1)C(=O)N[C@@H](CCCCN)C(=O)N[C@@H](CCC(=O)O)C(=O)O)[C@@H](C)O` , tested on Pseudomonas aeruginosa ATCC 15442?
≥ 78.9 µM
